tested on: M14; assay: NCI tumour cell line growth inhibition, 48 h
Activity calls are given as the source filed them. Cut-off read from the data, not from the text of the source: active = GI50 up to about 1.1 µM and inactive = higher.
PARAMETER MEASURED: GI50

Worked examples, 8 molecules total:
MOLECULE	GI50
COc1cc(/C=C2/CCS(=O)(=O)c3ccc(C)cc3C2=O)cc(OC)c1OC	5.33 µM (inactive)
COc1cc(O)c2c(c1)O[C@@H]1OCC[C@H]21	> 100 µM (inactive)
COc1ccc2c3ccc4c(c3n(C)c2c1)C(=O)c1ccccc1C4=O	> 100 µM (inactive)
C=C(Cl)C(Cl)(CBr)CCC(Cl)C(C)(C)Cl (stereo unspecified)	17.9 µM (inactive)
N#CC1C(=O)Nc2sc(C(=O)c3ccc(Br)cc3)c(N)c2C12CCCCC2 (stereo unspecified)	13.3 µM (inactive)
CC(C)(C)OC(=O)NCCCCCCC(=O)Cc1ccccc1	> 100 µM (inactive)
Cc1ccc(-c2c(C#N)c(-c3ccc(Cl)cc3)c(C#N)c(=O)n2NS(=O)(=O)c2ccc(C)cc2)cc1	19.5 µM (inactive)
COC1=C2C=[N+](C)C3C(=C2C=CC1OC)Cc1cc2c(cc13)OCO2 (stereo unspecified)	15.5 µM (inactive)

// fetch M14 GI50 for CCO/S(=N/S(=O)(=O)c1ccccc1)c1ccccc1[N+](=O)[O-] (stereo unspecified)
> 100 µM (inactive)

Continue with CC(C)(C)C1CCP(=O)(c2ccccc2)CC1 (stereo unspecified)
> 100 µM (inactive)

Continue with CC1(C)CC(C)(C)C1=NNC(N)=O
> 100 µM (inactive)
